These measurements were taken from PubChem BioAssay AID540252.

target: glucose-6-phosphate dehydrogenase-6-phosphogluconolactonase (Plasmodium falciparum 3D7); assay: inhibition of P. falciparum G6PD activity – biochemical, end-point NADPH detection, orthogonal assay, dose response (AID 540252); details: purified PfG6PD enzyme, NADPH direct detection
Activity calls are given as the source filed them. The rule behind the calls is not given here.
Tick one outcome: active, inactive

# input What did the test return for `COc1cccc(-c2c(C(=O)N/N=C/c3ccc(C)o3)nnn2-c2nonc2N)c1` ?
# output inactive

# input Moving on to the next compound: O=C1C=CC(=O)N1c1ccc2c(c1)C(NC(=O)C(F)(F)F)c1ccccc1-2 (stereo not drawn)
# output active

# input Moving on to the next compound: O=C1C=CC2=C3c4cc(O)c(O)cc4CC3(O)COC2=C1O (stereo not drawn)
# output inactive

# input Moving on to the next compound: `Cc1nnc(N/N=C\c2ccc(-c3cccc(C(=O)O)c3)o2)n1N`
# output inactive

# input Moving on to the next compound: `CCOC(=O)c1ccc(/[N+]([O-])=C/c2ccccc2)cc1`
# output inactive

# input Moving on to the next compound: `Cc1cc(O)c(-c2cc(O)c(C)cc2O)cc1O`
# output inactive

# input Moving on to the next compound: `CNS(=O)(=O)c1ccc(-c2ccc(C=C3C(=O)NC(=O)NC3=O)o2)cc1`
# output inactive

# input Moving on to the next compound: `COC(=O)[C@H](C)NC(=O)c1cc2c(cn1)[nH]c1ccccc12`
# output inactive

# input Moving on to the next compound: CCOC(=O)c1ccc(-n2c(N)c(C(=O)NCC3CCCO3)sc2=S)cc1 (stereo not drawn)
# output inactive

# input Moving on to the next compound: `O=C(Cn1sc2ccccc2c1=O)Nc1ccc(Cl)cc1`
# output active

# input Moving on to the next compound: `COc1cccc(C=Nc2cc(C(C)C)c(O)cc2C)c1O`
# output inactive

# input Moving on to the next compound: `CCOc1cc(NCc2ccccc2)c2ncn(C(C)C)c2c1`
# output inactive

# input Moving on to the next compound: `Cc1ccc2nc(SCC(=O)N/N=C/c3ccco3)cc(C)c2c1`
# output inactive

# input Moving on to the next compound: `O=[N+]([O-])c1c(NCCO)cc(Sc2nc3ccccc3s2)c2nonc12`
# output inactive

# input Moving on to the next compound: `CCn1c([N+](=O)[O-])nc2c1c(=O)[nH]c(=O)n2C`
# output inactive

# input Moving on to the next compound: COc1cc(OC)c(C2CC(=O)N3CN(c4ccccc4)CSC3=C2C#N)cc1OC (stereo not drawn)
# output inactive

# input Moving on to the next compound: `O=C(Nc1ccc([N+](=O)[O-])cc1Cl)c1cc(Cl)ccc1O`
# output inactive

# input Moving on to the next compound: `Cc1nc(COC(=O)c2cc(O)c3ccccc3c2O)cs1`
# output inactive

# input Moving on to the next compound: `CN1CCN(C(=S)c2ccc([N+](=O)[O-])cc2)CC1`
# output active

# input Moving on to the next compound: `Cc1nn(-c2ccccc2)c(Cl)c1/C=N/Nc1nc2ccccc2n1C`
# output inactive

# input Moving on to the next compound: `N#Cc1ccc2c(=O)n(-c3ccccc3)sc2c1`
# output inactive

# input Moving on to the next compound: CC1(OC(=O)C2CCCC2)C(=O)C=C2C=C(c3ccsc3)N(CCc3c[nH]c4ccccc34)C=C2C1=O (stereo not drawn)
# output inactive

# input Moving on to the next compound: CC(Cc1ccc(O)c(O)c1)C(C)Cc1ccc(O)c(O)c1 (stereo not drawn)
# output active
